Test system: LXRb homodimer (NR concentration 270 nM)
PROTOCOL_NOTES: PBM binding z-score (relative to random genomic background probes); higher = stronger binding; sequences stand for … in GC…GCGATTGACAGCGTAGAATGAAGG
So I've got a bunch of sequences here, and I need their PBM binding z-score values.
Numbers only.

Known results for sequences:
SEQUENCE_CHAIN	VALUE_MEASURED
ACTCGGAGGACCAAGGTCAGAGCTACGCCAGTGA	-0.603
CGAACGAGGGCATGAGTTGAAAGCAAATGCCGAT	-0.959
ATCTCTAGGTAAAGATAGTTCGGTGAATGCAAAT	0.531
TCTCGGAGGACACGAGAGGTCAGAGCTCGACATC	-0.47
TCTAGTTGGTCAAAGCTCACACACTCGAAATGCG	0.421
CAGCCTAGGTCAAGGCCAGTATAGGAGGAACGTT	-0.501

Dear reader, for each entry below, please note its PBM binding z-score.
1. CAAACTAGGTCAAAGGTGAAAGTCGAGCCAACCA
2. AGTCAAAGTTCAGAACGAGGTAACGTAAAGCACG
3. TCTAGCAAGCCAGAGGGTCACTCAAGAGGTACGG

Response given:
0.619
0.533
-1.21

Fill in PBM binding z-score for each of the 3 sequences listed.
1. GCATATAGTTAATACAAGGTGAAAGTCCGATTGT
2. AGACCGAGGGCAATGAGTTGATAGCACGGGTGGC
3. ATATGTCGGTTAGCTGGGGTCATTCAGACTAGGC

Response given:
[-0.202, -0.95, 1.24]

Look at each sequence and report its PBM binding z-score.
1. CGTCCAAGGTCAGAGACGTCAGTGAATGCCGAGT
2. CCTTACGGGTCACTCCAGGTTATAGAATCGGAGT
3. CCTGCTAGGCCAATGGTCAGCTAAAGCAGCTCGC
4. GGTACAGGGTCAAGGCCAGAGTACGCGTATTGAT
5. GCAGACAGGCGAAACGCAGGTAACTCAGGGTGGC
6. TCTTGTAGATAAACAGGAGGTTAAGAAAGATCGA
7. ATCTCTAGGTAAGACTCAGTTCAGCGAAGAACGC

Response given:
1: -0.32; 2: 0.287; 3: -0.839; 4: -0.206; 5: -1.38; 6: -0.398; 7: 0.684

----------
Tested on: FXR:RXRa (NR concentration 270 nM, RXRa partner concentration 90 nM)
PROTOCOL_NOTES: PBM binding z-score (relative to random genomic background probes); higher = stronger binding; sequences stand for … in GC…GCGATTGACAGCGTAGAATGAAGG
Category | rule: reported PBM binding z-score within range, see low (below 1), mid (1 to below 4), high (4 or more)

Some solved cases for reference:
SEQUENCE_CHAIN	CLASS_NAME
CGAACTAGGTCATTGACAGGACAGTGTATAGTAA	high
GCTAATTGGTCAGTAAAAGGTCACACACCGGTCG	mid
CTCGAAAGATCGTGCTCAGGTGAGTATACCAAAC	low

Challenge: Category of CCTGCTACGTCATGGTCAGCTAATCTACAGTATG :
Response given: low

Challenge: Next record, please: CAAACTAGGCCACAGAGGTCAAAGTCCGTGCGTA
Response given: high

Challenge: Item: TCTAGCAGGCCAGGGGGTCACTCAAGAGGTACGG
Response given: mid

Challenge: Follow-up entry: CATGCAGGGTCAGCTAGGCCAGAGTAGGGACGGC
Response given: high

Challenge: Item: AGAATGAGGTTATTAAGAGCAGGGAATTGCGGTC
Response given: mid

Challenge: Next record, please: ACAGACAGGTGATTAAGGTAACTCAGGCTATCAT
Response given: low

Challenge: Also TGACTGAGGTTATAAGATCAGGGAACGTTGCAAA ?
Response given: mid

Challenge: Now consider TAGCCTAGGTCATGGGCCAGTAAACCACGCGAAC .
Response given: high
